Target: human orexin type 2 receptor (hOX2R) (Homo sapiens, UniProt O43614)
Construct: expressed in transfected cells
Sequence (O43614 whole entry): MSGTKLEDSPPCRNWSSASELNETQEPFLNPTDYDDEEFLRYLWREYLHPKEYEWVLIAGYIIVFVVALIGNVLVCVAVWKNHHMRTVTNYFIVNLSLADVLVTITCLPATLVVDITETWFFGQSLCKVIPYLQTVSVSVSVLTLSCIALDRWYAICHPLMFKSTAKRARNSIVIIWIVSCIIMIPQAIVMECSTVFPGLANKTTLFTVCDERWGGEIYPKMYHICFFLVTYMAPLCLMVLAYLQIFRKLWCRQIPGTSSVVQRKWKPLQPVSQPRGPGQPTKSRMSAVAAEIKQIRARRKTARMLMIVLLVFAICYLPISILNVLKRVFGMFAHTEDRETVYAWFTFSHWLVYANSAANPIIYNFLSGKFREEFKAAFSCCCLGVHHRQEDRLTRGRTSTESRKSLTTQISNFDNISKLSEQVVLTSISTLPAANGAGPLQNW
Assay: Measurement of orexin type 2 receptor agonist activity (Fluo-4 calcium fluorescence, CHO cells forcibly expressing human OX2 receptor)
Assay type: cell-based
Conditions: test compound 3 μM, DMSO = 0%, orexin A (human) 10 nM = 100%
Source text: Experimental Example 1: Obtainment of Cell Stably Expressing Human Orexin Type 2 Receptor (hOX2R) To obtain a cell clone stably expressing human orexin type 2 receptor, human orexin type 2 receptor cDNA was inserted into pcDNA3.1(+) plasmid vector (Invitrogen), and a plasmid DNA for expression of human orexin type 2 receptor (pcDNA3.1(+)/hOX2R) was cloned. […]
Parameter Measured: OX2R agonist activity (3 μM, %)

>  <Compound>
COc1nccc(C)c1C(=O)N1C[C@@H](OC)[C@H](Oc2cccc(CS(=O)(=O)N(C)C3CCOCC3)c2)C1 (relative stereo)

>  <Parameter Measured>
OX2R agonist activity (3 μM, %)

>  <Measured Number>
102

$$$$
>  <Compound>
COc1cccc(OC)c1C(=O)N1C[C@@H](OC)[C@H](Oc2cccc(CS(=O)(=O)N3CCCC3c3ccccn3)c2)C1 (relative stereo)

>  <Parameter Measured>
OX2R agonist activity (3 μM, %)

>  <Measured Number>
93

$$$$
>  <Compound>
CO[C@@H]1CN(C(=O)c2cc(C)ccc2C)C[C@H]1Oc1cccc(NS(=O)(=O)N(C)C2CCOC2)c1 (relative stereo)

>  <Parameter Measured>
OX2R agonist activity (3 μM, %)

>  <Measured Number>
94

$$$$
>  <Compound>
CO[C@@H]1CN(C(=O)Oc2c(C)cccc2C)C[C@H]1Oc1cccc(NS(=O)(=O)N2CC3CC3C2)c1 (stereo partly drawn)

>  <Parameter Measured>
OX2R agonist activity (3 μM, %)

>  <Measured Number>
76

$$$$
>  <Compound>
CO[C@@H]1CN(C(=O)c2cc(C)ccc2C)C[C@H]1Oc1cccc(CS(=O)(=O)N2CCCC2c2ccccn2)c1 (relative stereo)

>  <Parameter Measured>
OX2R agonist activity (3 μM, %)

>  <Measured Number>
80

$$$$
>  <Compound>
CO[C@@H]1CN(C(=O)c2cc(C)ccc2C)C[C@H]1Oc1cccc(CS(=O)(=O)N2CCCC2Cc2cccnc2)c1 (relative stereo)

>  <Parameter Measured>
OX2R agonist activity (3 μM, %)

>  <Measured Number>
89

$$$$

###

target: human orexin type 2 receptor (hOX2R) (Homo sapiens); construct: expressed in transfected cells; test: Measurement of orexin type 2 receptor agonist activity (Fluo-4 calcium fluorescence, CHO cells forcibly expressing human OX2 receptor); assay type: cell-based; settings: test compound 3 μM, DMSO = 0%, orexin A (human) 10 nM = 100%
Entries and their OX2R agonist activity (3 μM, %)

>  <Molecule>
CCc1cccc(C)c1C(=O)N1C[C@@H](OC)[C@H](Oc2cccc(CS(=O)(=O)N(C)C3CCOCC3)c2)C1 [Example 146]

>  <System>
human orexin type 2 receptor (hOX2R) (Homo sapiens)

>  <Unit Abbreviation>
%

>  <OX2R agonist activity (3 μM, %)>
105

$$$$
>  <Molecule>
CO[C@@H]1CN(C(=O)c2cc(C)ccc2C)C[C@H]1Oc1cc(F)cc(CS(=O)(=O)N2CCCC2c2ccccn2)c1 (relative stereo)

>  <System>
human orexin type 2 receptor (hOX2R) (Homo sapiens)

>  <Unit Abbreviation>
%

>  <OX2R agonist activity (3 μM, %)>
70

$$$$
>  <Molecule>
CO[C@@H]1CN(C(=O)c2cc(C)ccc2C)C[C@H]1Oc1cccc(NS(=O)(=O)N2CCC(C)C2)c1 (relative stereo)

>  <System>
human orexin type 2 receptor (hOX2R) (Homo sapiens)

>  <Unit Abbreviation>
%

>  <OX2R agonist activity (3 μM, %)>
84

$$$$
>  <Molecule>
COC1CN(C(=O)c2cc(C)ccc2C)CC1Oc1cc(NS(=O)(=O)N2C[C@@H]3C[C@H]3C2)cc(F)n1 (relative stereo)

>  <System>
human orexin type 2 receptor (hOX2R) (Homo sapiens)

>  <Unit Abbreviation>
%

>  <OX2R agonist activity (3 μM, %)>
68

$$$$
>  <Molecule>
COC1CN(C(=O)c2cc(C)ccc2C)CC1Oc1cccc(NS(=O)(=O)N2C[C@H]3C[C@H]2C3)c1 (relative stereo)

>  <System>
human orexin type 2 receptor (hOX2R) (Homo sapiens)

>  <Unit Abbreviation>
%

>  <OX2R agonist activity (3 μM, %)>
75

$$$$
>  <Molecule>
CCc1cccc(C)c1C(=O)N1C[C@@H](OC)[C@H](Oc2cccc(C(F)(F)S(=O)(=O)N(C)C3CCOCC3)c2)C1 (relative stereo)

>  <System>
human orexin type 2 receptor (hOX2R) (Homo sapiens)

>  <Unit Abbreviation>
%

>  <OX2R agonist activity (3 μM, %)>
43

$$$$
